test: self-splicing fitness, log relative to wild type (ln ratio); higher = more splicing; Tetrahymena group I intron in knt gene, E. coli kanamycin selection, DiMSum; sequences stand for … in CUCUCU…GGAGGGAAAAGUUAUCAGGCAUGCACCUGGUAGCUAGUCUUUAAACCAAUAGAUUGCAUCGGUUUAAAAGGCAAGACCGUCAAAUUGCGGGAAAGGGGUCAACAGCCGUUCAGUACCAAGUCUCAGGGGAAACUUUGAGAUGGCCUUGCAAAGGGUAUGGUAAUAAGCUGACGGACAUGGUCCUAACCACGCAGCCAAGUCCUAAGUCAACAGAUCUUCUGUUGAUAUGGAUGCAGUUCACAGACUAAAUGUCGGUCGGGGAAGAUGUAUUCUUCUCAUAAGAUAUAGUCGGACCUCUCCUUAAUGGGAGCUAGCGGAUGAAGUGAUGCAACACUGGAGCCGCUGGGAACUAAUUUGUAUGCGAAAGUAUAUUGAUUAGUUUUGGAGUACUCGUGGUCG; details: 30 °C;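 also: selection with 25 µg/mL kanamycin versus none on LB agar overnight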
Assign label 1 to entries whose self-splicing fitness (ln) meets or exceeds -2; assign label 0 to the rest.

>  <ordered_residues>
AUUGAGCAAUAUUACGUUAG

>  <class_assignment>
label 0

$$$$
>  <ordered_residues>
UGUAAGCAAUAUUACGUGUA

>  <class_assignment>
label 1

$$$$
>  <ordered_residues>
CCUCAGCAAUAUUACGAACG

>  <class_assignment>
label 1

$$$$
>  <ordered_residues>
UCGCAGCAAUAUUACGCGCA

>  <class_assignment>
label 1

$$$$
>  <ordered_residues>
UCUCAGCAAUAUUACGCCAG

>  <class_assignment>
label 1

$$$$
>  <ordered_residues>
GGCUAGCAAUAUUACGGGAA

>  <class_assignment>
label 1

$$$$
>  <ordered_residues>
CUACAGCAAUAUUACGGAUG

>  <class_assignment>
label 1

$$$$
>  <ordered_residues>
CACCAGCAAUAUUACGUACC

>  <class_assignment>
label 0

$$$$
>  <ordered_residues>
AGAUAGCAAUAUUACGCCUU

>  <class_assignment>
label 1

$$$$
>  <ordered_residues>
CCACAGCAAUAUUACGUAAU

>  <class_assignment>
label 0

$$$$
>  <ordered_residues>
UUACAGCAAUAUUACGGCCA

>  <class_assignment>
label 1

$$$$
>  <ordered_residues>
ACAGAGCAAUAUUACGAUAA

>  <class_assignment>
label 0

$$$$
>  <ordered_residues>
UCACAGCAAUAUUACGGAUU

>  <class_assignment>
label 0

$$$$
>  <ordered_residues>
CUCUAGCAAUAUUACGCGGA

>  <class_assignment>
label 0

$$$$
>  <ordered_residues>
CAGAAGCAAUAUUACGUAUG

>  <class_assignment>
label 0

$$$$
>  <ordered_residues>
CCGCAGCAAUAUUACGGGUG

>  <class_assignment>
label 1

$$$$
>  <ordered_residues>
CUUAAGCAAUAUUACGAUUC

>  <class_assignment>
label 0

$$$$
>  <ordered_residues>
CACUAGCAAUAUUACGGUUU

>  <class_assignment>
label 1

$$$$
>  <ordered_residues>
GCACAGCAAUAUUACGAGUA

>  <class_assignment>
label 1

$$$$
>  <ordered_residues>
CUGCAGCAAUAUUACGGCUG

>  <class_assignment>
label 0

$$$$
>  <ordered_residues>
GCUCAGCAAUAUUACGACAC

>  <class_assignment>
label 1

$$$$
>  <ordered_residues>
GACUAGCAAUAUUACGACUG

>  <class_assignment>
label 1

$$$$
>  <ordered_residues>
UUGUAGCAAUAUUACGAAAU

>  <class_assignment>
label 0

$$$$
>  <ordered_residues>
UGACAGCAAUAUUACGCAAG

>  <class_assignment>
label 0

$$$$
>  <ordered_residues>
CUACAGCAAUAUUACGCAGG

>  <class_assignment>
label 0

$$$$
>  <ordered_residues>
AAAUAGCAAUAUUACGUACG

>  <class_assignment>
label 1

$$$$
>  <ordered_residues>
CGCGAGCAAUAUUACGGUUU

>  <class_assignment>
label 0

$$$$
>  <ordered_residues>
CCUUAGCAAUAUUACGGGGU

>  <class_assignment>
label 0

$$$$
>  <ordered_residues>
ACGCAGCAAUAUUACGACAG

>  <class_assignment>
label 1

$$$$
>  <ordered_residues>
AAGCAGCAAUAUUACGGCCU

>  <class_assignment>
label 1

$$$$
>  <ordered_residues>
GACAAGCAAUAUUACGUUCG

>  <class_assignment>
label 0

$$$$
>  <ordered_residues>
UUGUAGCAAUAUUACGGUCU

>  <class_assignment>
label 0

$$$$
>  <ordered_residues>
CUAGAGCAAUAUUACGACCC

>  <class_assignment>
label 1

$$$$
